This collection of values is drawn from patent US7105675B2.

# STUDY_SYSTEM: δ opioid receptor (Rattus norvegicus, UniProt P33533)
# Sequence (P33533 whole entry): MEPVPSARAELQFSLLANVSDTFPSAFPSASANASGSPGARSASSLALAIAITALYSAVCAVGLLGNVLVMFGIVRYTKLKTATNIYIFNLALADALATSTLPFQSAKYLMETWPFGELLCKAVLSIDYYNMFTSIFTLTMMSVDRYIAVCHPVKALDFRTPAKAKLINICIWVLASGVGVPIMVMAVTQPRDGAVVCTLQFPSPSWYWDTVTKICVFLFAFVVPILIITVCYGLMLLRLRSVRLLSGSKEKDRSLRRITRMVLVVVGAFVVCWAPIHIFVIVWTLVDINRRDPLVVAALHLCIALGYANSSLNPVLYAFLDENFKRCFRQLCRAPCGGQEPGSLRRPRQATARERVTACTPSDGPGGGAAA
# EXPERIMENT: Radioligand binding, delta sites, displacement of [3H]DADLE in rat brain membranes
# Parameters: Rat membranes were prepared each day using a partially thawed frozen rat brain; from tissue; host or cells: rat brain membranes
# TEST_CONTEXT: pyridomorphinans; ratio of Ki values
PROPERTY: Selectivity Ratio μ/δ
Reply with the value as a number alone.

Ask | Supply recorded Selectivity Ratio μ/δ for N#Cc1cnc2c(c1)CC1(O)C3Cc4ccc(O)c5c4C1(CCN3CC1CC1)C2O5 (stereo not shown) here.
Reply | 3.6

Ask | Supply recorded Selectivity Ratio μ/δ for `Nc1cnc2c(c1)C[C@@]1(O)[C@H]3Cc4ccc(O)c5c4[C@@]1(CCN3CC1CC1)[C@H]2O5` here.
Reply | 1.6

Ask | Supply recorded Selectivity Ratio μ/δ for O=[N+]([O-])c1cnc2c(c1)CC1(O)C3Cc4ccc(O)c5c4C1(CCN3CC1CC1)C2O5 (stereo not shown) here.
Reply | 3.2

Ask | Supply recorded Selectivity Ratio μ/δ for Oc1ccc2c3c1OC1c4ncc(Br)cc4CC4(O)C(C2)N(CC2CC2)CCC314 (stereo not shown) here.
Reply | 13

###

# STUDY_SYSTEM: δ opioid receptor (DPDPE) in MVD (Mus musculus, UniProt P32300)
# Construct: Electrically-induced smooth muscle contractions of mouse vas deferens and strips of guinea pig ileum longitudinal muscle myenteric plexus were used; from tissue; host or cells: mouse vas deferens (male ICR mice)
# Sequence (P32300 whole entry): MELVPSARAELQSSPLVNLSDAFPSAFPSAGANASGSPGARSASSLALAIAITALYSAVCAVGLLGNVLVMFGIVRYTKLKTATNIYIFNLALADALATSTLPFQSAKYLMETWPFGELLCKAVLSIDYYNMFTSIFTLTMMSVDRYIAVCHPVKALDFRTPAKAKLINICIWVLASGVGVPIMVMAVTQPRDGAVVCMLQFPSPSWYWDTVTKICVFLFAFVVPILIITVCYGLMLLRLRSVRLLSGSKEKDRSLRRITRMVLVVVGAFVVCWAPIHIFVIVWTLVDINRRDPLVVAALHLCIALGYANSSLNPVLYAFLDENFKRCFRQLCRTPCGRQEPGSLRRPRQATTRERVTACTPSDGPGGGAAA
# EXPERIMENT: Antagonist activity against DPDPE in electrically stimulated mouse vas deferens (MVD)
# Format: cell-based
# Protocol: Bioassays in GPI and MVD smooth muscle preparations. Electrically-induced smooth muscle contractions of mouse vas deferens and strips of guinea pig ileum longitudinal muscle myenteric plexus were used. Tissues came from maile ICR mice weighing 25–40 g and male Hartley guinea pigs weighing 250–500 g. […] The tissues were then stretched to optimal length previously determined to be 1 g tension (0.5 g for MVD) and allowed to equilibrate for 15 min. […]
Threshold 10 nM: Kb strictly smaller gives class 1, otherwise class 0.

Ask | Dear reviewer, please state whether `CCOC(=O)c1cnc2c(c1)C[C@@]1(O)[C@H]3Cc4ccc(O)c5c4[C@@]1(CCN3CC1CC1)[C@H]2O5` has Kb strictly beneath 10 nM.
Reply | class 0

Ask | Dear reviewer, please state whether N#Cc1cnc2c(c1)CC1(O)C3Cc4ccc(O)c5c4C1(CCN3CC1CC1)C2O5 (centres unmarked) has Kb strictly beneath 10 nM.
Reply | class 0

Ask | Dear reviewer, please state whether `Nc1sc2c(c1C(=O)OCc1ccccc1)[C@@H]1Oc3c(O)ccc4c3[C@@]13CCN(CC1CC1)[C@H](C4)[C@]3(O)C2` has Kb strictly beneath 10 nM.
Reply | class 1

Ask | Dear reviewer, please state whether O=[N+]([O-])c1cnc2c(c1)CC1(O)C3Cc4ccc(O)c5c4C1(CCN3CC1CC1)C2O5 (centres unmarked) has Kb strictly beneath 10 nM.
Reply | class 0

Ask | Dear reviewer, please state whether `N#Cc1c(N)sc2c1[C@@H]1Oc3c(O)ccc4c3[C@@]13CCN(CC1CC1)[C@H](C4)[C@]3(O)C2` has Kb strictly beneath 10 nM.
Reply | class 1

Ask | Dear reviewer, please state whether Oc1ccc2c3c1OC1c4ncc(Br)cc4CC4(O)C(C2)N(CC2CC2)CCC314 (centres unmarked) has Kb strictly beneath 10 nM.
Reply | class 1

Ask | Dear reviewer, please state whether `Nc1cnc2c(c1)C[C@@]1(O)[C@H]3Cc4ccc(O)c5c4[C@@]1(CCN3CC1CC1)[C@H]2O5` has Kb strictly beneath 10 nM.
Reply | class 0
